test system: HEK293T/ACE2 cells; settings: human
Structures can show the parent of a compound that is named as a salt.
quantity: rVSVΔG-GFP/VSVG Hoechst (%)
Please respond with the number in % and leave the unit unwritten.

Data request: Reported rVSVΔG-GFP/VSVG Hoechst (%) for OCCN1CCN(CCCN2c3ccccc3Sc3ccc(Cl)cc32)CC1 : what is it?
Data returned: 86.64

Data request: Try the molecule CN1CC2c3ccccc3Oc3ccc(Cl)cc3C2C1 (stereo not drawn) [Asenapine Maleate, Asenapine maleate]
Data returned: 95.98

Data request: Try the molecule CC[C@H]1OC(=O)[C@H](C)[C@@H](O[C@H]2C[C@@](C)(OC)[C@@H](O)[C@H](C)O2)[C@H](C)[C@@H](O[C@@H]2O[C@H](C)C[C@H](N(C)C)[C@H]2O)[C@](C)(O)C[C@@H](C)CN(C)[C@H](C)[C@@H](O)[C@]1(C)O [Azithromycin dihydrate]
Data returned: 101.30

Data request: Try the molecule CN[C@H]1CC[C@@H](c2ccc(Cl)c(Cl)c2)c2ccccc21 [Sertraline hydrochloride]
Data returned: 97.33

Data request: Try the molecule CC/C(=C(\c1ccccc1)c1ccc(OCCN(C)C)cc1)c1ccccc1 [Tamoxifen citrate]
Data returned: 97.14

Data request: Try the molecule CN1CCN(CCCN2c3ccccc3Sc3ccc(Cl)cc32)CC1 [Prochlorperazine Maleate, Prochlorperazine dimaleate]
Data returned: 93.26

Data request: Try the molecule C[C@@H](NCCCc1cccc(C(F)(F)F)c1)c1cccc2ccccc12 [Cinacalcet hydrochloride]
Data returned: 95.94

Data request: Try the molecule Fc1ccc([C@@H]2CCNC[C@H]2COc2ccc3c(c2)OCO3)cc1 [Paroxetine hydrochloride]
Data returned: 98.03

Data request: Try the molecule CNCCC=C1c2ccccc2CCc2ccccc21 [Nortriptyline hydrochloride]
Data returned: 76.77

Data request: Try the molecule CCCCc1oc2ccc(NS(C)(=O)=O)cc2c1C(=O)c1ccc(OCCCN(CCCC)CCCC)cc1 [Dronedarone hydrochloride]
Data returned: 101.34

Data request: Try the molecule CN(C)CCCN1c2ccccc2Sc2ccc(Cl)cc21 [Chlorpromazine hydrochloride]
Data returned: 97.98

Data request: Try the molecule Cc1c(-c2ccc(O)cc2)n(Cc2ccc(OCCN3CCCCCC3)cc2)c2ccc(O)cc12 [Bazedoxifene acetate]
Data returned: 102.51

Data request: Try the molecule Cc1ccc(NC(=O)c2ccc(CN3CCN(C)CC3)cc2)cc1Nc1nccc(-c2cccnc2)n1 [Imatinib Mesylate (STI571), Imatinib Mesylate]
Data returned: 94.49

Data request: Try the molecule CN(C)CCOc1ccc(/C(=C(/CCCl)c2ccccc2)c2ccccc2)cc1 [Toremifene citrate]
Data returned: 98.74

Data request: Try the molecule OCCN1CCN(CCCN2c3ccccc3Sc3ccc(C(F)(F)F)cc32)CC1 [Fluphenazine hydrochloride, Fluphenazine dihydrochloride]
Data returned: 100.59
